# ASSAY_TARGET: T1, CaBdf1 BD1 (GST-tagged, wild-type) (Candida albicans (strain SC5314 / ATCC …, UniProt Q5A4W8))
# T1 chain: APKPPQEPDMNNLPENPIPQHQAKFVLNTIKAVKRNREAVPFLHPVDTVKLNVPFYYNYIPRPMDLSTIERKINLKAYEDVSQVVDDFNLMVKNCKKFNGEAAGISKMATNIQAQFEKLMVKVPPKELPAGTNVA
# ASSAY_EXPLANATION: histone peptide array (Active Motif MODified), 1 uM GST-tagged bromodomain, anti-GST detection, normalized mean intensity
Numbered stars: 1 amine (or outer) side, 2 acyl side, 3 side chain; on linkers, the order of the positions; unused ones are H or OH. Square brackets hold non-standard residues; d marks the D form. Ends that are not written are not given here. Arg(Me2a) = CN(C)C(=N)NCCC[C@H](N)C(=O)O; Kac = CC(=O)NCCCC[C@H](N[*:1])C(=O)[*:2]; Lys(Me3) = C[N+](C)(C)CCCC[C@H](N)C(=O)O; Arg(Me2s) = CN=C(NC)NCCC[C@H](N)C(=O)O; Lys(Me2) = CN(C)CCCC[C@H](N)C(=O)O; pS = N[C@@H](COP(=O)(O)O)C(=O)O; Cit = NC(=O)NCCC[C@H](N)C(=O)O; Lys(Me) = CNCCCC[C@H](N)C(=O)O; Me2a = not defined here
Each entry below carries its recorded binding score.
MEASURED_PARAMETER: binding score

* A[Arg(Me2a)]TK(Ac)QTA[Arg(Me2s)][Lys(Me3)]STGGKAPRKQ | 0.00653
* A[Arg(Me2s)]TKQTARKSTGGKAPRKQ | 0.000725
* ARTK(Ac)QTAR(me2s)K(Ac)STGGKAPRKQ | 0.0729
* SGRGKGGKGLGKGGAKRHR (pS G Rme2s G K G G K G L G K G G A K R H R) | 0.00508
* ARTKQTARKSTGGKAPRKQ (A Rme2s T Kme1 Q T A Rme2s Kme2 S T G G K A P R K Q) | 0.00254
* ARTKQTARKSTGGKAPRKQ (A Rme2a T Kme3 Q T A Rme2s Kme1 S T G G K A P R K Q) | 0.00326
* PRKQLATKAA[Arg(Me2a)]K[pS]APATGG [H3 16-35] | 0.00435
* ARTKQTARKSTGGKAPRKQ (A R T K Q T A Rme2s K S T G G K A P R K Q) | 0.00218
* A[Arg(Me2a)]TK(Ac)QTARKSTGGKAPRKQ | 0.00363
* ARTKQTARKSTGGKAPRKQ (A R T K Q T A Rme2a Kme2 S pT G G K A P R K Q) | 0.00435
* K[Lys(Me)][Lys(Me2)][Lys(Me3)]K(Ac)R[Arg(Me2s)]R[Arg(Me2a)]R[Cit]K[Lys(Me)]K(Ac)[Lys(Me3)]RK [background 01] | 0.00906
* ARTKQTARKSTGGKAPRKQ (A R T K Q T A Rme2a Kme2 S T G G K A P R K Q) | 0.0029
* A[Arg(Me2s)]T[Kac]QTA[Arg(Me2s)][Lys(Me2)]STGGKAPRKQ | 0.00725
* ARTKQTARKSTGGKAPRKQ (A R T K Q T A R Kme2 pS T G G K A P R K Q) | 0.00326
* SGRGKGGKGLGKGGAKRHR (S G R G K G G K G L G K G G A Kac R H R) | 0.0149
* ARTKQTARKSTGGKAPRKQ (A Rme2s T Kme2 Q T A Rme2a Kme2 S T G G K A P R K Q) | 0.0029
* ARTKQTARKSTGGKAPRKQ (A R T K Q T A R Kme3 S pT G G K A P R K Q) | 0.00363
* AR(Me2s)TK(Me)QTAR(Me2a)K(Me)STGGKAPRKQ (reading uncertain) | 0.00435
* SGRGK(Ac)QGGKARAK(Ac)AKSRSS | 0.109
* ARTKQTARKSTGGKAPRKQ (A Rme2a T Kme2 Q T A Rme2a Kac S T G G K A P R K Q) | 0.0395
* ARTKQTARKSTGGKAPRKQ (A Rme2s T Kac Q T A Rme2s Kme1 S T G G K A P R K Q) | 0.00653
* ARTKQTARKSTGGKAPRKQ (A Rme2a T Kme1 Q T A Rme2s Kme3 S T G G K A P R K Q) | 0.00471
* A[Arg(Me2a)]TKQTARKSTGGKAPRKQ | 0.000363
* ARTKQTARKSTGGK(Ac)APRKQ | 0.0319
* [pS]GRGKQGGK(Ac)ARAKAKSRSS | 0.0174
* ARTKQTARKSTGGKAPRKQ (A Rme2s T Kme1 Q T A Rme2a Kac S T G G K A P R K Q) | 0.0381
* A[Arg(Me2a)]T[Lys(Me2)]QTAR[Lys(Me2)]STGGKAPRKQ | 0.00399
